Tested on: VDR:RXRa (NR concentration 270 nM, RXRa partner concentration 90 nM)
Test: PBM binding z-score (relative to random genomic background probes); higher = stronger binding; sequences stand for … in GC…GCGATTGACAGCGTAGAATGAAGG
Metric Name: PBM binding z-score

Item Sequence	Metric Name	Measured Value
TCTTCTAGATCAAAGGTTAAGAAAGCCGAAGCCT	PBM binding z-score	1.58
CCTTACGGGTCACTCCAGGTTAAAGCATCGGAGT	PBM binding z-score	4.34
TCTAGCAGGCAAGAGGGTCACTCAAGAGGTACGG	PBM binding z-score	2.01
GCTCGGAGGACAAGGTCAGAGCGTTGTCCGTAGA	PBM binding z-score	1.67
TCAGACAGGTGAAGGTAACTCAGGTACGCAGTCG	PBM binding z-score	0.943
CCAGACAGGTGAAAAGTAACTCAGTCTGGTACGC	PBM binding z-score	0.113
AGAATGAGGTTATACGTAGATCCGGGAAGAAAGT	PBM binding z-score	1.15
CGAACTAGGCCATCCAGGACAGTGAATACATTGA	PBM binding z-score	0.0871
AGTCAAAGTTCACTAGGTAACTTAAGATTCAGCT	PBM binding z-score	3.88
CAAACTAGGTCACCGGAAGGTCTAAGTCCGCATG	PBM binding z-score	3.1
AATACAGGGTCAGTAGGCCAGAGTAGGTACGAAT	PBM binding z-score	2.65
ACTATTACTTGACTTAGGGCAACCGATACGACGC	PBM binding z-score	0.428
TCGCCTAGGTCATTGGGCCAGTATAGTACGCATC	PBM binding z-score	2.23
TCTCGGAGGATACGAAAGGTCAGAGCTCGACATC	PBM binding z-score	2.6
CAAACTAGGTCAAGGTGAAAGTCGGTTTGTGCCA	PBM binding z-score	2.1
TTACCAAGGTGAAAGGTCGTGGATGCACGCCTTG	PBM binding z-score	3.28
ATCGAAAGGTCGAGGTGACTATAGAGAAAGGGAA	PBM binding z-score	2.55
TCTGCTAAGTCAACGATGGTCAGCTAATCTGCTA	PBM binding z-score	-0.644
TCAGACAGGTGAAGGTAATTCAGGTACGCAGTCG	PBM binding z-score	1.1
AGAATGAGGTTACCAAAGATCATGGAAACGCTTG	PBM binding z-score	1.79
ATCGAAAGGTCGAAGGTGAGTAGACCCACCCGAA	PBM binding z-score	2.43
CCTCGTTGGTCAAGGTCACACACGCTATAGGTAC	PBM binding z-score	3.93
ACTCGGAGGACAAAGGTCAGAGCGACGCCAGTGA	PBM binding z-score	3.47
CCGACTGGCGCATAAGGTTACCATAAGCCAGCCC	PBM binding z-score	-0.0103
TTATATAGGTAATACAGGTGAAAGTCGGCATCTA	PBM binding z-score	0.727
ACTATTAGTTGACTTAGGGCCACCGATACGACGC	PBM binding z-score	0.067
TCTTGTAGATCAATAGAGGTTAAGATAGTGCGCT	PBM binding z-score	1.65
TCTATTATTTGAAGGGCAACCGACGAGTCCGTTT	PBM binding z-score	1.55
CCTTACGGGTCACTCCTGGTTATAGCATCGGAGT	PBM binding z-score	2.79
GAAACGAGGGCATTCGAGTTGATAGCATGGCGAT	PBM binding z-score	3.97
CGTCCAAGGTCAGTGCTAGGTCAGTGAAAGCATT	PBM binding z-score	3.71
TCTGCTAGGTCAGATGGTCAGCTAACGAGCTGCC	PBM binding z-score	0.133
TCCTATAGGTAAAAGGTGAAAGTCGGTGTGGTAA	PBM binding z-score	1.17
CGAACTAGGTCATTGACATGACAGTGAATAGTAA	PBM binding z-score	2.16
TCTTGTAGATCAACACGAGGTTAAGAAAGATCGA	PBM binding z-score	0.895
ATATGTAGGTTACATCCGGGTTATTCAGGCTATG	PBM binding z-score	1.68
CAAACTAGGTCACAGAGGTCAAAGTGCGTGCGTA	PBM binding z-score	8.02
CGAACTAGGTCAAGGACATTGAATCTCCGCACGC	PBM binding z-score	1.73
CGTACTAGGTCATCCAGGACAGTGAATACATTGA	PBM binding z-score	4.32
CTCGAAAGGTCGGTTGAGGTGAGTTTACGGATAA	PBM binding z-score	3.29
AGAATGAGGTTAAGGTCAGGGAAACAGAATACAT	PBM binding z-score	3.82
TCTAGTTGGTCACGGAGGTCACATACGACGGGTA	PBM binding z-score	5.92
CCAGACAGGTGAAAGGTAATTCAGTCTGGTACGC	PBM binding z-score	0.632
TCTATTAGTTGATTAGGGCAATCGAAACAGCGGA	PBM binding z-score	0.607
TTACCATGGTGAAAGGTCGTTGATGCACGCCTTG	PBM binding z-score	2.11
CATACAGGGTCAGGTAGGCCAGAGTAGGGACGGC	PBM binding z-score	3.35
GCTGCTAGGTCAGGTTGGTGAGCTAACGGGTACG	PBM binding z-score	0.141
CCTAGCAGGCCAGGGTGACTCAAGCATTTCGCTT	PBM binding z-score	-0.639
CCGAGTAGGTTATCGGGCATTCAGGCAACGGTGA	PBM binding z-score	-0.386
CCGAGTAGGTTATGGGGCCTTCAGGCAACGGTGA	PBM binding z-score	-0.408
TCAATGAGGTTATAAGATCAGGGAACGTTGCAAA	PBM binding z-score	1.22
